Measured values drawn from PubChem BioAssay AID1259415 for this set.

Assay: qHTS Assay for inhibitors of the human cytomegalovirus (HCMV); note: % is set by controls: 0 for no effect and ±100 for the full control effect
Conditions: HFF cells, HCMV-luciferase reporter, 72 h; at 57.5 µM; active compounds read low
Hit rate of the full screen: of about 410,000 compounds, about 18,000 (4.4%) were called active. Not shown: some 7% with an inconclusive outcome. This is one part of a sample in which actives are shown more often than they occur.
test.readout: activity change, negative = inhibition (%)
Answers are plain numbers, in %.

These recorded examples may help you get a feel for the data.
COc1ccc(NC(=O)CSc2nccn2C2CCCC2)cc1OC; -35.1
CCc1ccccc1NC(=O)c1ccc(F)c(S(=O)(=O)NC2CCCCCC2)c1; 27
COC(=O)c1ccccc1NC(=O)c1cnn(-c2ccc(F)cc2)c1-n1cccc1; -4.4

Here are 8 compounds. What values of activity change, negative = inhibition were reported for them?
1. COc1ccc(CCNC(=O)CCCCn2c(=O)c3ccccc3n(Cc3ccccc3C)c2=O)cc1OC
2. Cc1cccc(-n2ccnc2SCC(=O)Nc2cc(C(F)(F)F)ccc2Cl)c1
3. CC(Nc1ccccc1)c1cccnc1 (stereo unspecified)
4. CC(C)COP(=O)(c1ccc(N(C)C)cc1)C(Nc1ccccc1)c1cccnc1 (stereo unspecified)
5. Cc1cccc(NC(=O)c2ccc(F)c(S(=O)(=O)N(C)C3CCCCC3)c2)c1
6. O=C1C(C=NCC2CCCO2)=C(O)c2ccccc21 (stereo unspecified)
7. Cc1cccc(-n2ncc(C(=O)N3CCN(c4ccc(Cl)cc4)CC3)c2C2CCN(C(=O)OC(C)(C)C)CC2)c1
8. Cc1cccc(-n2ncc(Cl)c(Cl)c2=O)c1

Out:
1. -31.9
2. -18.2
3. 4.97
4. -101
5. -81.6
6. 69.7
7. 0
8. -104

----------
Experiment: qHTS Assay for inhibitors of the human cytomegalovirus (HCMV); note: % is set by controls: 0 for no effect and ±100 for the full control effect
Details: HFF cells, HCMV-luciferase reporter, 72 h; at 57.5 µM
Screen size: about 410,000 compounds; about 18,000 (4.4%) were called active. Another 7% or so got no clear call; they are omitted. Rule as the data show it: active = activity change below about -60%; inconclusive = no clear call, values can overlap the other calls; inactive = above about -39%. The sample holds actives, similar compounds and a random draw of the others, so the mix is not that of the screen.
Thanks in advance; please answer with one of these: t for active, f for inactive

COc1ccccc1CNC(=O)C(Cc1ccccc1)NS(=O)(=O)c1ccc2c(c1)oc(=O)n2C (stereo not given); f
COc1cccc(Cn2c(SCc3ccc(C(=O)N4CCC(C)CC4)cc3)nc3ccncc32)c1; f

In: Check the results log: what was the call for CCN(C(=O)c1ccc(Br)cc1)c1ccccc1 ?
Out: f

In: Would you mind telling me which call this test gave Cc1cc(Nc2cccc(C(F)(F)F)c2)nc2ccc(NC(=O)c3ccc(=O)[nH]c3)cc12 ?
Out: f

In: Dear colleague, could you share the recorded outcome for O=C(NCCS(=O)(=O)N1CCN(c2ccc(F)cc2)CC1)c1ccccc1Br when you have a moment?
Out: f

In: Each compound tested received a call. Report the one for COc1ccc(-n2nc3c(c2NC(=O)Cc2cccc(C)c2)CS(=O)C3)cc1 (stereo not given) .
Out: f

In: Call for entry CCCCCn1c(=O)[nH]c2cc(C(=O)NCCN(C)CCCC)ccc2c1=O :
Out: f

----------
Experiment: qHTS Assay for inhibitors of the human cytomegalovirus (HCMV); note: % is set by controls: 0 for no effect and ±100 for the full control effect
Details: HFF cells, HCMV-luciferase reporter, 72 h; at 57.5 µM; active compounds read low
Hit rate of the full screen: of about 410,000 compounds, about 18,000 (4.4%) were called active. Not shown: some 7% with an inconclusive outcome. The sample holds actives, similar compounds and a random draw of the others, so the mix is not that of the screen.
test.readout: activity change, negative = inhibition (%)
Answers are plain numbers, in %.

The cases that follow already have their activity change, negative = inhibition on record.
CCn1cc(C(=O)NCCc2ccccc2)c(=O)c2cc(S(=O)(=O)N3CCCCCC3)ccc21; -9.08
Cc1c(NS(=O)(=O)c2ccc(Cl)cc2)c(=O)n(-c2ccccc2)n1C; 8.64
CC(C)c1nc2sc3c(c2c(=O)n1N)CC(C)(C)OC3; -18.9
CCOC(=O)c1cccc(NC(=O)C2CCCN(S(=O)(=O)c3cnc[nH]3)C2)c1 (stereo not given); -78.2

Now consider the entry below.
In: Report measured activity change, negative = inhibition; entry is CCC1(C)Cc2c(sc3[nH]c(=S)n(Cc4ccccc4)c(=O)c23)CO1 (stereo not given)
Out: -69.4

----------
Hi there, I'd appreciate the recorded activity change, negative = inhibition for every entry that follows.
Assay: qHTS Assay for inhibitors of the human cytomegalovirus (HCMV); note: % is set by controls: 0 for no effect and ±100 for the full control effect
Conditions: HFF cells, HCMV-luciferase reporter, 72 h; at 57.5 µM; active compounds read low
In all, about 410,000 compounds went through this assay and about 18,000 (4.4%) were called active. Not shown: some 7% with an inconclusive outcome. Many of the other results were omitted from the sample, so actives are more common in it than they were.
Give bare numbers, in %.

S=C(Nc1ccc2c(c1)OCO2)N1CCCC1; 17.6
Cc1ccc(C)c(OCCC(=O)Nc2cccc(S(=O)(=O)N3CCCC3)c2)c1; -23.7
Cc1cccc(OCCCC(=O)Nc2ccc(S(=O)(=O)N3CCCC3)cc2)c1; 10.4
O=C(CN1C2CCC1CC(NC(=O)C1CC1)C2)NCc1ccccc1 (stereo unspecified); 18.9
CCc1ccc2oc(-c3ccc(NC(=O)c4cc5ccccc5o4)cc3)nc2c1; 37.7

Consider now this further compound.
In: Specify reported activity change, negative = inhibition for the compound shown: CC1=NN(C(=O)CCc2ccccc2O)C(O)(C(F)(F)F)C1 (stereo unspecified)
Out: -66

----------
Experiment: qHTS Assay for inhibitors of the human cytomegalovirus (HCMV); note: % is set by controls: 0 for no effect and ±100 for the full control effect
Conditions: HFF cells, HCMV-luciferase reporter, 72 h; at 57.5 µM; active compounds read low
Screen size: about 410,000 compounds; about 18,000 (4.4%) were called active. Not shown: some 7% with an inconclusive outcome. The full list was thinned out, with actives kept by preference.
Kindly note that classification relies on activity change, negative = inhibition with these boundaries: class 1: < -20%; class 2: ≥ -20% and < 10%; class 3: ≥ 10%

CC(=NNC(=O)c1ccncc1)c1ccc(Cl)c(Cl)c1; class 1

In: Band of Cc1nn2c(=O)cc(COC(=O)c3ccccc3NC(=O)COc3ccccc3C)nc2s1 ?
Out: class 3

In: Please let me know in which category the item O=C(N/N=C/c1ccc(Cl)c(Cl)c1)c1ccc2nc[nH]c2c1 belongs.
Out: class 1

In: Where would Cc1ccc(S(=O)(=O)N2CCC(C(=O)Nc3cc(C)ccc3C)CC2)cc1 land among the classes by reported activity change, negative = inhibition?
Out: class 3

In: Please let me know in which category the item O=C(CN1C(=O)COc2ccc(S(=O)(=O)N3CCOCC3)cc21)N1CCN(c2cccc(Cl)c2)CC1 belongs.
Out: class 2

In: Please report the category associated with O=C(NC1CCN(Cc2ccccc2)CC1)c1ccc(Cn2c(=O)c3ccccc3n(Cc3cccc(F)c3)c2=O)cc1 , nothing else.
Out: class 2

In: State the band of COc1cc(OC)cc(-c2nc3nc(C)c(CCC(=O)Nc4ccc(C)cc4)c(C)n3n2)c1
Out: class 3

----------
Experiment: qHTS Assay for inhibitors of the human cytomegalovirus (HCMV); note: % is set by controls: 0 for no effect and ±100 for the full control effect
Details: HFF cells, HCMV-luciferase reporter, 72 h; at 57.5 µM
Hit rate of the full screen: of about 410,000 compounds, about 18,000 (4.4%) were called active. About 7% were inconclusive and are not listed. Cut-off read from the data, not from the text of the source: active = activity change below about -60%; inconclusive = no clear call, values can overlap the other calls; inactive = above about -39%. The full list was thinned out, with actives kept by preference.
Your response should consist of one outcome taken from active, inactive

Some entries whose results are on file:
Cc1ccc(CS(=O)(=O)c2ncc(Cl)c(C(=O)Nc3nnc(C)s3)n2)cc1; active
COc1ccc(Cl)cc1NC(=O)CSc1nc2ccccc2c2nc(-c3ccccc3)nn12; inactive
O=C(Nc1nc2ccc(F)cc2s1)c1nc(SCc2ccccc2F)ncc1Cl; inactive
CSc1nnc(NC(=O)c2nc(S(=O)(=O)Cc3ccc(C)cc3)ncc2Cl)s1; active

// switching to the query compound
In: Hi, sorry to bother you, what did the test record for O=C(COc1ccc(Cl)cc1)N(Cc1ccco1)Cc1ccco1 ?
Out: inactive

----------
Test: qHTS Assay for inhibitors of the human cytomegalovirus (HCMV); note: % is set by controls: 0 for no effect and ±100 for the full control effect
Conditions: HFF cells, HCMV-luciferase reporter, 72 h; at 57.5 µM; active compounds read low
Description: NCGC Assay Overview: Infection with human cytomegalovirus (HCMV) continues to pose significant threats for pregnant women and immunocompromised hosts. […] This is a cell-based assay for HCMV inhibition in HFFs cells. […] At 72 h post infection cell lysates were collected and luciferase activity was determined using the Glomax-Multi + Detection System (Promega, Madison, WI). […]
Hit rate of the full screen: of about 410,000 compounds, about 18,000 (4.4%) were called active. Not shown: some 7% with an inconclusive outcome. The list comes from a sample in which actives are over-represented; it also holds close analogues and randomly drawn compounds.
test.readout: activity change, negative = inhibition (%)
Numbers only, in %.

Observe how each entry below is paired with its result.
Cc1cccc(N2CCN(S(=O)(=O)c3ccc4[nH]c5c(c4c3)CCCCC5)CC2)c1C; 16.6
O=C(Cn1c(=O)nc(-c2ccccc2)c2cc(Cl)ccc21)NCc1ccc(Cl)cc1; 4.55
C/C(N)=C(/C#N)C(=O)COC(=O)C1=NN(c2ccccc2)C(=O)CC1; 36.4
O=C(CSc1oc(-c2ccco2)nc1S(=O)(=O)c1ccccc1)c1ccc(Cl)cc1; -17.5
CCOc1ccc(CN2CCN(CCCc3ccccc3)C(CCO)C2)cc1 (configuration not stated); 37.5
Cc1cccc(Cc2c(C)nc3nc(SCc4ccccc4Cl)nn3c2C)c1; 4.98
CCN1N=C(c2ccccc2)CCC1=O; -24.2
CC[C@]12c3[nH]c4cc(CCC(=O)N(C)C)ccc4c3CCN1C(=O)[C@@H](CC(=O)NCCCN(C)C)C[C@@H]2C(=O)N1CCN(C(=O)c2ccco2)CC1; -18.4

Provide the reported activity change, negative = inhibition of each entry below, same order.
1. Cn1cnc(C(F)(F)F)c1-c1ccc([N+](=O)[O-])cc1
2. O=C(CCS(=O)(=O)c1ccc2c(c1)NC(=O)CO2)Nc1cccc(C(F)(F)F)c1
3. C=CCN1C=C(C(=O)c2ccccc2)C(=O)CC1
4. CC(C)C(c1nnnn1Cc1ccccc1)N1CCC(C(N)=O)CC1 (configuration not stated)

Out:
1. -9.95
2. -106
3. -25.3
4. 55.3

Please report activity change, negative = inhibition for every entry that follows.
1. CC1CCCCC1NC(=O)CCS(=O)(=O)c1ccc2c(c1)NC(=O)CO2 (configuration not stated)
2. Cc1ccc(C(=O)N2c3ncnn3C3(CCCCC3)[C@@H]3CCCC[C@@H]32)cc1
3. COc1ccc(S(=O)(=O)N2CCN(CC(=O)NCC3(N4CCOCC4)CCCCC3)CC2)cc1
4. Clc1cccc(Cl)c1Cl
5. Cc1cc2c(cc1S(=O)(=O)CCC(=O)Nc1ccc(OC(F)(F)F)cc1)OCC(=O)N2

Out:
-22.8
-15.5
-36.1
-15.9
5.03
